System: P388 leukaemia
TEST SUMMARY: P388 in vivo, life span of mice bearing intraperitoneal P388 leukaemia
Design: species or system mice (F1 hybrid, DBA-2 male×C57 B1 female)
TEST PARAMETERS: solution in 0.1 ml of 30% v/v ethyl alcohol in water on days 1, 5 and 9, soluble acid addition salt
PROPERTY: OD (O.D., optimal drug dose) (milligrams per kilogram)
Supply the numeric figure in milligrams per kilogram, leaving out any unit text.

Give its OD (O.D., optimal drug dose) value. Item: CS(=O)(=O)Nc1ccc(Nc2c3ccccc3nc3c2ccc2cccnc23)cc1
150

Give its OD (O.D., optimal drug dose) value. Item: COP(=O)(Nc1ccc(Nc2c3ccccc3nc3c2ccc2cccnc23)cc1)OC
45

Give its OD (O.D., optimal drug dose) value. Item: COC(=O)Nc1ccc(Nc2c3ccccc3nc3c2ccc2cccnc23)c(OC)c1
45

Give its OD (O.D., optimal drug dose) value. Item: COC(=O)Nc1ccc(Nc2c3ccccc3nc3c2ccc2cccnc23)cc1
30

Give its OD (O.D., optimal drug dose) value. Item: COc1cc(NS(C)(=O)=O)ccc1Nc1c2ccccc2nc2c1ccc1cccnc12
13.3

* * *

Test system: P388 leukaemia
TEST SUMMARY: P388 in vivo, life span of mice bearing intraperitoneal P388 leukaemia
Parameters: species or system mice (F1 hybrid, DBA-2 male×C57 B1 female)
TEST PARAMETERS: at optimal dose, days 1, 5 and 9, controls survive 11 days on average, >20% statistically significant
PROPERTY: ILS (percentage increase in life span) (%)
Supply the numeric figure in %, leaving out any unit text.

API: value(readout= ILS (percentage increase in life span), system= P388 leukaemia, query= COP(=O)(Nc1ccc(Nc2c3ccccc3nc3c2ccc2cccnc23)cc1)OC [Compound 5] )
64

API: value(readout= ILS (percentage increase in life span), system= P388 leukaemia, query= COC(=O)Nc1ccc(Nc2c3ccccc3nc3c2ccc2cccnc23)c(OC)c1 [Compound 3] )
95

API: value(readout= ILS (percentage increase in life span), system= P388 leukaemia, query= COC(=O)Nc1ccc(Nc2c3ccccc3nc3c2ccc2cccnc23)cc1 [Compound 4] )
64

API: value(readout= ILS (percentage increase in life span), system= P388 leukaemia, query= CS(=O)(=O)Nc1ccc(Nc2c3ccccc3nc3c2ccc2cccnc23)cc1 [Compound 2] )
30

API: value(readout= ILS (percentage increase in life span), system= P388 leukaemia, query= COc1cc(NS(C)(=O)=O)ccc1Nc1c2ccccc2nc2c1ccc1cccnc12 [Compound 1] )
109
